src = the RNAGym collection of RNA variant scans (doi:10.1021/acssynbio.7b00057)

B1: Pistol ribozyme (parent)
chain: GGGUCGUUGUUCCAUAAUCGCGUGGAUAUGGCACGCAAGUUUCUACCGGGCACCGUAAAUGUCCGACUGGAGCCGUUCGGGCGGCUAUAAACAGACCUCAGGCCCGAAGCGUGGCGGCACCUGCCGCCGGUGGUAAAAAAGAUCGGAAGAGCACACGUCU

Variants of: B1
Test: aptazyme ON/OFF ratio, guanine; higher = stronger switching; co-transcriptional cleavage with and without guanine
The entries below come with measured aptazyme ON/OFF ratio values attached.

Check out these entries, answers already filled in.
Ask: Which aptazyme ON/OFF ratio value belongs to U7A U8A U10A C12A C13U ?
Result: 1.37

Ask: Which aptazyme ON/OFF ratio value belongs to U7G G9A U10A U11G C12A C13A ?
Result: 1.05

Ask: Which aptazyme ON/OFF ratio value belongs to U8A G9U U11C C12A C13G ?
Result: 1.07

Ask: Which aptazyme ON/OFF ratio value belongs to U7G U8A G9A U10A U11G C13A ?
Result: 1.14

More entries:
Ask: Which aptazyme ON/OFF ratio value belongs to U7C G9C U10G C12A C13G ?
Result: 1.14

Ask: Which aptazyme ON/OFF ratio value belongs to U7A G9C U10A U11A C12G C13A ?
Result: 1.04
